- procedure_text: Viability qHTS for spleen associated tyrosine kinase inhibitor (SYKi) naive MV4-11 cells (AID 1963823); note: nearly all actives have a fitted effect of over 40% in size
- condition_description: MV4-11 AML viability, CellTiter-Glo luminescence, 72 h; series mostly up to 45 µM
Inconclusive results are not listed. Calls of active or inactive are those of the source. Calls come from the whole dose curve; as a rule, active = well fitted cell-killing curve with a large enough effect; inconclusive = small, poorly fitted or top-dose-only effect, or effect the other way; inactive = no such curve, though single readings can be large or run the other way.
Answer with one of the outcomes active, inactive

Some entries whose results are on file:
{"smiles_string": "CC(C)CCC[C@@H](C)[C@H]1CC[C@H]2[C@@H]3CC=C4C[C@@H](OC(=O)NCCN(C)C)CC[C@]4(C)[C@H]3CC[C@]12C", "class_assignment": "active"}
{"smiles_string": "C[C@H](O)C(=O)Nc1c(I)c(C(=O)NC(CO)CO)c(I)c(C(=O)NC(CO)CO)c1I", "class_assignment": "inactive"}
{"smiles_string": "CCc1cc(C(N)=S)ccn1", "class_assignment": "inactive"}
{"smiles_string": "CCCCN(CCCC)CCCOC(=O)c1ccc(N)cc1", "class_assignment": "inactive"}

Continue with the next compound.
Please share the test call associated with C=C(CCO[C@@H]1O[C@H](CO)[C@@H](O)[C@H](O)[C@H]1O)C(=O)O .
inactive

====

- procedure_text: Quantitative highthroughput screen to assess conditional lethalithy of SEM cells grown in RPMI1640 with unreated serum (RPMI+s) (AID 1963883); note: potency is the fitted concentration of half-maximal effect; nearly all actives have a fitted effect of over 35% in size
- condition_description: SEM B-ALL cells, CellTiter-Glo viability, 48 h; series mostly up to 45.8 µM
Inconclusive results are not listed. Calls of active or inactive are those of the source. Calls follow the shape of the dose curve; as a rule, active = well fitted cell-killing curve with a large enough effect; inconclusive = small, poorly fitted or top-dose-only effect, or effect the other way; inactive = no such curve, though single readings can be large or run the other way.
Answer with one of the outcomes T for active, F for inactive

{"compound": "Cc1cccc(-c2[nH]c(C(C)(C)C)nc2-c2ccc3nccnc3c2)n1", "class_assignment": "T"}

Please share the test call associated with C=C1C(=O)O[C@H]2[C@@H]1CCC(C)=CCC[C@@]1(C)O[C@@H]21 .
T

Please share the test call associated with COc1cc(O)c2c(c1)C1OC1C[C@H](O)[C@H](O)C(=O)C=CC[C@H](C)OC2=O (stereo not given in full) .
T

====

- procedure_text: Viability qHTS for spleen associated tyrosine kinase inhibitor (SYKi) naive MV4-11 cells (AID 1963823); note: nearly all actives have a fitted effect of over 40% in size
- condition_description: MV4-11 AML viability, CellTiter-Glo luminescence, 72 h; series mostly up to 45 µM
Results filed as inconclusive are left out. The source made the active and inactive calls. Calls follow the shape of the dose curve; as a rule, active = well fitted cell-killing curve with a large enough effect; inconclusive = small, poorly fitted or top-dose-only effect, or effect the other way; inactive = no such curve, though single readings can be large or run the other way.
Answer with one of the outcomes active, inactive

Some entries whose results are on file:
{"compound": "CN1C(=O)N[C@H](Cc2c[nH]c3c(Cl)cccc23)C1=O", "class_assignment": "inactive"}
{"compound": "CC(OC1OCCN(Cc2n[nH]c(=O)[nH]2)C1c1ccc(F)cc1)c1cc(C(F)(F)F)cc(C(F)(F)F)c1 (stereo not given)", "class_assignment": "active"}
{"compound": "Nc1nc(COC(=O)c2ccc([N+](=O)[O-])cc2)nc(Nc2ccccc2)n1", "class_assignment": "inactive"}
{"compound": "c1ccc(CNCc2ccc(CN3CCCNCCNCCCNCC3)cc2)nc1", "class_assignment": "inactive"}
{"compound": "C#CCN(C)Cc1ccccc1", "class_assignment": "inactive"}
{"compound": "COc1cc(-c2ccc(=O)[nH]n2)ccc1OC(F)F", "class_assignment": "inactive"}
{"compound": "O=C(Cn1c2ccccc2c2nc3n(c(=O)c21)CCS3)N1CCCC1", "class_assignment": "inactive"}
{"compound": "O=C(/C=C/c1ccc(O)c(O)c1)OC[C@H]1O[C@@H](OC2CCCCC2O)[C@H](O)[C@@H](O)[C@@H]1O (stereo not given in full)", "class_assignment": "inactive"}
{"compound": "Nc1nc2c(nc(Br)n2[C@@H]2O[C@@H]3COP(=O)(O)O[C@H]3[C@H]2O)c(=O)[nH]1", "class_assignment": "inactive"}

Please share the test call associated with Cc1ccc(NS(=O)(=O)c2ccc3c(c2)CCC(=O)N3)cc1C .
active

====

- procedure_text: Quantitative highthroughput screen to assess conditional lethalithy of P12 Ichikawa cells grown in RPMI1640 with untreated serum (RPMI+s) (AID 1963881); note: nearly all actives have a fitted effect of over 35% in size
- condition_description: ATP luminescence, 48 h; viability; series mostly up to 45.8 µM
Results filed as inconclusive are left out. The source made the active and inactive calls. Calls come from the whole dose curve; as a rule, active = well fitted cell-killing curve with a large enough effect; inconclusive = small, poorly fitted or top-dose-only effect; inactive = flat fitted curve, though single readings scatter.
Answer with one of the outcomes active, inactive

{"smiles_string": "Cc1cc2cc3c(C)cc(=O)oc3c(C)c2o1", "class_assignment": "inactive"}
{"smiles_string": "Cc1c(O)cccc1C(=O)N[C@@H](CSc1ccccc1)[C@H](O)CN1C[C@H]2CCCC[C@@H]2C[C@@H]1C(=O)NC(C)(C)C", "class_assignment": "inactive"}
{"smiles_string": "Cc1c(C(=O)Nc2ccc(N3C[C@@H](C)O[C@@H](C)C3)nc2)cccc1-c1ccc(OC(F)(F)F)cc1", "class_assignment": "active"}
{"smiles_string": "COc1cc2ncnc(Nc3cc(Br)c(O)c(Br)c3)c2cc1OC", "class_assignment": "inactive"}
{"smiles_string": "O=S(=O)(c1cccc2cnccc12)N1CCCNCC1", "class_assignment": "inactive"}
{"smiles_string": "NC(=O)Nc1cc(-c2cccc(F)c2)sc1C(=O)N[C@H]1CCCNC1", "class_assignment": "active"}
{"smiles_string": "COc1ccc(-c2nc(N3CCOCC3)c3sc(CN(C)c4ncc(C(=O)NO)cn4)cc3n2)cn1", "class_assignment": "active"}
{"smiles_string": "CC[C@]12C=CCN3CC[C@@]4(c5cc([C@@]6(C(=O)OC)C[C@H]7C[C@@H](C(C)(F)F)CN(Cc8c6[nH]c6ccccc86)C7)c(OC)cc5N(C)[C@H]4[C@@](O)(C(=O)OC)[C@H]1OC(C)=O)[C@@H]32", "class_assignment": "active"}

Continue with the next compound.
Please share the test call associated with Cc1cc(-c2ncc(CC(=O)Nc3ccc(-c4cnccn4)cn3)cc2C)ccn1 .
inactive

====

- procedure_text: Viability qHTS for spleen associated tyrosine kinase inhibitor (SYKi) drug resistant MV4-11 cells (AID 1963824); note: nearly all actives have a fitted effect of over 35% in size
- condition_description: SYKi-resistant MV4-11 viability, CellTiter-Glo, 72 h; series mostly up to 45 µM
- Description: Department of Medicine, Hematology/Oncology University Hospital Frankfurt, Germany. Trials have shown promising clinical activity of the selective SYK inhibitor entospletinib in patients with high expressing HOXA9/MEIS1 acute leukemias. […] 7; Detection; Luminescence; ViewLux plate reader (PerkinElmer). […] 1. Quantitative high-throughput screening (qHTS) of small molecule compounds was conducted on drug resistant SYKi MV4-11 cell line. […] 7. Luminescence was measured on a ViewLux plate reader (PerkinElmer).
Records with an inconclusive call do not appear. The source made the active and inactive calls. Calls come from the whole dose curve; as a rule, active = well fitted cell-killing curve with a large enough effect; inconclusive = small, poorly fitted or top-dose-only effect, or effect the other way; inactive = no such curve, though single readings can be large or run the other way.
Answer with one of the outcomes active, inactive

{"smiles_string": "COc1cccc(-c2cc(=O)c3ccccc3o2)c1N", "class_assignment": "active"}
{"smiles_string": "CC(C)n1nc(-c2ccc(NC(=O)Nc3cccc(C(F)(F)F)c3)cc2)c2c(N)ncnc21", "class_assignment": "inactive"}
{"smiles_string": "C[C@@H]1COCCN1c1cc(-c2ccnn2C)c2ccnc(-c3ccn[nH]3)c2n1", "class_assignment": "active"}
{"smiles_string": "c1ccc(Cc2ncc3c(n2)CCNCC3)cc1", "class_assignment": "inactive"}
{"smiles_string": "O=C1NC(c2ccccc2)(c2ccccc2)C(=O)N1COP(=O)(O)O", "class_assignment": "inactive"}

Please share the test call associated with CCOC(=O)C1=C(O)C(=O)N(Cc2ccccc2)C1 .
inactive

====

- procedure_text: Quantitative highthroughput screen to assess conditional lethalithy of P12 Ichikawa cells grown in Human Plasma-Like Medium with dialyzed fetal bovine serum (HPLM+ds) (AID 1963879); note: nearly all actives have a fitted effect of over 35% in size; note: potency is the fitted concentration of half-maximal effect
- condition_description: ATP luminescence, 48 h; viability; series mostly up to 45.8 µM
Records with an inconclusive call do not appear. The source made the active and inactive calls. Calls come from the whole dose curve; as a rule, active = well fitted cell-killing curve with a large enough effect; inconclusive = small, poorly fitted or top-dose-only effect; inactive = flat fitted curve, though single readings scatter.

{"compound": "CNC1[C@H](O)C(O[C@@H]2C(O)C(O[C@H]3O[C@H]([C@@H](C)NC)CC[C@H]3N)[C@@H](N)C[C@H]2N)OC[C@]1(C)O (some centres undefined)", "Potency": "inactive"}
{"compound": "CN(C)CC[C@H](CSc1ccccc1)Nc1ccc(S(=O)(=O)NC(=O)c2ccc(N3CCN(Cc4ccccc4-c4ccc(Cl)cc4)CC3)cc2)cc1[N+](=O)[O-]", "Potency": "1480 nM (active)"}
{"compound": "OC(CN1CCC(Cc2ccc(F)cc2)CC1)c1ccc(Cl)cc1 (centres undefined)", "Potency": "inactive"}
{"compound": "NC(=O)N1c2ccccc2CC(=O)c2ccccc21", "Potency": "inactive"}

====

- procedure_text: Viability qHTS for spleen associated tyrosine kinase inhibitor (SYKi) naive MV4-11 cells (AID 1963823); note: nearly all actives have a fitted effect of over 40% in size
- condition_description: MV4-11 AML viability, CellTiter-Glo luminescence, 72 h; series mostly up to 45 µM
Inconclusive results are not listed. Calls of active or inactive are those of the source. The call rests on the fitted dose curve; in most records, active means well fitted cell-killing curve with a large enough effect; inconclusive means small, poorly fitted or top-dose-only effect, or effect the other way; inactive means no such curve, though single readings can be large or run the other way. Where a SMILES comes first, the peptide text is derived from it. [ ]: non-standard residue; d: D form. pGlu = O=C1CC[C@@H](C(=O)O)N1
Answer with one of the outcomes active, inactive

{"molecule": "NC(=O)[C@@H](CCC(F)(F)F)N(Cc1ccc(-c2ncon2)cc1F)S(=O)(=O)c1ccc(Cl)cc1", "class_assignment": "active"}

Please share the test call associated with C/C(CO)=C1/CCC23COC(C2)C(O)(C(=O)O)CCC13 (stereo not given) .
inactive

Please share the test call associated with CCNC(=O)[C@@H]1CCCN1C(=O)[C@H](CCCN=C(N)N)NC(=O)[C@H](CC(C)C)NC(=O)CNC(=O)[C@H](Cc1ccc(O)cc1)NC(=O)[C@H](CO)NC(=O)[C@H](Cc1c[nH]c2ccccc12)NC(=O)[C@H](Cc1cnc[nH]1)NC(=O)[C@@H]1CCC(=O)N1 ([pGlu]HWSYGLRP-NHEt) .
active

Please share the test call associated with CN(Cc1cccs1)c1ncnc2ccc(-c3ccc4c(c3)OCO4)cc12 .
active

Values compiled from PubChem BioAssay (NCATS).
